Hey, just so you know, these numbers are from patent US20250332300A1.

Target: mouse HER2 (23-653) (Mus musculus)
Test: Surface plasmon resonance (SPR) for assessment of peptide affinity, mouse HER2
Format: binding
Set-up: mouse HER2 (23-653) using a Cy5 labeled peptide as a probe; made in house
Conditions: SPR, mouse HER2 extracellular domain, 25° C., 1:1 binding model; read-out: moHER2-SPR-ONC KD
Where a name gives a salt, the structure may show the parent alone. Positions of bridges follow the written chain, without caps; N, C: chain ends. Non-standard residues stand in square brackets, D forms with d. Residues, ends and D or L forms follow the SMILES beside them. Trp(5-OH) = N[C@@H](Cc1c[nH]c2ccc(O)cc12)C(=O)O; NMePhe(4-F) = CN[C@@H](Cc1ccc(F)cc1)C(=O)O; NMehPhe = CN[C@@H](CCc1ccccc1)C(=O)O; NMeAhp(2) = CCCCC[C@H](NC)C(=O)O; Aad = N[C@@H](CCCC(=O)O)C(=O)O; Gly(cPr) = N[C@H](C(=O)O)C1CC1; NMeK = CN[C@@H](CCCCN)C(=O)O; NMeDap = CN[C@@H](CN)C(=O)O; NMeC = CN[C@@H](CS)C(=O)O; NMeS = CN[C@@H](CO)C(=O)O; hCys = N[C@@H](CCS)C(=O)O
MEASURED PARAMETER: pKd
Units for pKd: none; it is -log10 of a concentration expressed in mol/L.

Consider CN1C(=O)[C@H](CO)NC(=O)[C@H](Cc2ccc(O)cc2)NC(=O)[C@@H](N)CCSSC[C@@H](C(=O)N(C)[C@@H](Cc2ccc(F)cc2)C(N)=O)N(C)C(=O)[C@H](C2CC2)NC(=O)[C@H](Cc2c[nH]c3ccccc23)NC(=O)[C@H](Cc2c[nH]c3ccc(O)cc23)NC(=O)[C@H](CO)N(C)C(=O)[C@@H]1CCc1ccccc1 [Example A57, TFA salt] (H-[hCys]YS[NMehPhe][NMeS][Trp(5-OH)]W[Gly(cPr)][NMeC][NMePhe(4-F)]-NH2; disulfide 1-9) . Its measured pKd is 5.84

Consider CCCCC[C@@H](C(N)=O)N(C)C(=O)[C@@H]1CNC(=O)CCC[C@H](NC(C)=O)C(=O)N[C@@H](Cc2ccc(O)cc2)C(=O)N[C@@H](CO)C(=O)N(C)[C@@H](CCc2ccccc2)C(=O)N(C)[C@@H](CCCCNC(C)=O)C(=O)N[C@@H](Cc2c[nH]c3ccc(O)cc23)C(=O)N[C@@H](Cc2c[nH]c3ccccc23)C(=O)N[C@@H](C2CC2)C(=O)N1C [Example A15] (Ac-[Aad]YS[NMehPhe][NMeK](Ac)[Trp(5-OH)]W[Gly(cPr)][NMeDap][NMeAhp(2)]-NH2; lactam 1-9) . Its measured pKd is 7.62

###

Target: human HER2 (23-652) (Homo sapiens, UniProt P04626)
Assay: Surface plasmon resonance (SPR) for assessment of peptide affinity, human HER2
Type: binding
Design: towards human HER2 (23-652) and mouse HER2 (23-653); made in house
Conditions: SPR, human HER2 extracellular domain, 25° C., 1:1 binding model; read-out: huHER2-SPR-ONC KD
Positions of bridges follow the written chain, without caps; N, C: chain ends. Non-standard residues stand in square brackets, D forms with d. Residues, ends and D or L forms follow the SMILES beside them. Trp(5-OH) = N[C@@H](Cc1c[nH]c2ccc(O)cc12)C(=O)O; NMePhe(4-F) = CN[C@@H](Cc1ccc(F)cc1)C(=O)O; Lys(N3) = [N-]=[N+]=NCCCC[C@H](N)C(=O)O; NMehPhe = CN[C@@H](CCc1ccccc1)C(=O)O; Aad = N[C@@H](CCCC(=O)O)C(=O)O; Gly(cPr) = N[C@H](C(=O)O)C1CC1; NMeK = CN[C@@H](CCCCN)C(=O)O; NMeDap = CN[C@@H](CN)C(=O)O; NMeS = CN[C@@H](CO)C(=O)O
MEASURED PARAMETER: Kd (nM)
# unit: nM | format: bare number

[[record]]
compound = "CC(=O)NCCCC[C@H]1C(=O)N[C@@H](Cc2c[nH]c3ccc(O)cc23)C(=O)N[C@@H](Cc2c[nH]c3ccccc23)C(=O)N[C@@H](C2CC2)C(=O)N(C)[C@H](C(=O)N(C)[C@@H](Cc2ccc(F)cc2)C(=O)N[C@@H](CCCCN=[N+]=[N-])C(N)=O)CNC(=O)CCC[C@H](NC(C)=O)C(=O)N[C@@H](Cc2ccc(O)cc2)C(=O)N[C@@H](CO)C(=O)N(C)[C@@H](CCc2ccccc2)C(=O)N1C [Example A74] (Ac-[Aad]YS[NMehPhe][NMeK](Ac)[Trp(5-OH)]W[Gly(cPr)][NMeDap][NMePhe(4-F)][Lys(N3)]-NH2; lactam 1-9)"
measured_parameter = "Kd"
display_unit = "nM"
assay_value = 0.1

[[record]]
compound = "CC(=O)N[C@H]1CCCC(=O)NC[C@@H](C(=O)N(C)[C@@H](Cc2ccc(F)cc2)C(N)=O)N(C)C(=O)[C@H](C2CC2)NC(=O)[C@H](Cc2c[nH]c3ccccc23)NC(=O)[C@H](Cc2c[nH]c3ccc(O)cc23)NC(=O)[C@H](CO)N(C)C(=O)[C@H](CCc2ccccc2)N(C)C(=O)[C@H](CO)NC(=O)[C@H](Cc2ccc(O)cc2)NC1=O [Example A29] (Ac-[Aad]YS[NMehPhe][NMeS][Trp(5-OH)]W[Gly(cPr)][NMeDap][NMePhe(4-F)]-NH2; lactam 1-9)"
measured_parameter = "Kd"
display_unit = "nM"
assay_value = 30

[[record]]
compound = "CN1C(=O)[C@H](CO)NC(=O)[C@H](Cc2ccc(O)cc2)NC(=O)[C@@H](N)CCC(=O)NC[C@@H](C(=O)N(C)[C@@H](Cc2ccc(F)cc2)C(N)=O)N(C)C(=O)[C@H](C2CC2)NC(=O)[C@H](Cc2c[nH]c3ccccc23)NC(=O)[C@H](Cc2c[nH]c3ccc(O)cc23)NC(=O)[C@H](CO)N(C)C(=O)[C@@H]1CCc1ccccc1"
measured_parameter = "Kd"
display_unit = "nM"
assay_value = 37


Then there is this compound:
For the compound CC(=O)NCCCC[C@H]1C(=O)N[C@@H](Cc2c[nH]c3ccc(O)cc23)C(=O)N[C@@H](Cc2c[nH]c3ccccc23)C(=O)N[C@@H]([C@H](C)O)C(=O)N(C)[C@H](C(=O)N(C)[C@@H](Cc2ccc(F)cc2)C(=O)N[C@@H](CCCCNC(=O)CN2CCN(CC(=O)O)CCN(CC(=O)O)CCN(CC(=O)O)CC2)C(N)=O)CNC(=O)CCC[C@H](NC(C)=O)C(=O)N[C@@H](Cc2ccc(O)cc2)C(=O)N[C@@H](CO)C(=O)N(C)[C@@H](CCc2ccccc2)C(=O)N1C , the measured Kd on human HER2 (23-652) (Homo sapiens, UniProt P04626) was 0.3
